- method notes: ATG_Ets_CIS: Attagene CIS-FACTORIAL HepG2 Assay for human Erythroblast Transformation Specific (ETS) (AID 2282941)
- test parameters: HepG2 ETS cis-reporter transcription, actives raise or lower the signal
The source made the active and inactive calls. How the source made its calls: active means hit-call score of the fitted dose curve at least 0.9, where 1 is the maximum; inactive means score below 0.9.
quantity name: outcome

CN(C)c1ccc(N=NS(=O)(=O)O)cc1 : inactive
CNS(=O)(=O)c1cc(C(=O)N2CCC(CCN3C4CCC3CC(n3c(C)nc5ccccc53)C4)(c3cccc(F)c3)CC2)c(Cl)cc1F (stereo not drawn) : inactive
Cn1c(=O)cc(Oc2ccc(F)cc2F)c2cnc(NCC(C)(C)O)nc21 : inactive

* * *

- Read-out: Paternally Expressed 10 (PEG10), PEG10 (gene 23089)
- method notes: LTEA_HepaRG_PEG10: Life Technologies and Expression Analysis (LTEA) Assay for Paternally Expressed 10 (PEG10) using HepaRG (AID 2283520)
- test parameters: mRNA level, 48 h; actives raise or lower the signal
Calls of active or inactive are those of the source. How the source made its calls: active means hit-call score of the fitted dose curve at least 0.9, where 1 is the maximum; inactive means score below 0.9.
Output constraint: value belongs to TRUE for active, FALSE for inactive

CCCN(C1CCN(C(=O)C2CCNCC2)CC1)[C@@H]1CCc2ccc(OC)cc2C1 : TRUE
COc1ccc2sc(C(=O)Nc3nnn[nH]3)c(OC(C)C)c2c1 : TRUE
O=C(O)c1cc(N=Nc2ccc(S(=O)(=O)Nc3ccccn3)cc2)ccc1O : FALSE
CCOC(=O)COc1ccc2c(c1)CC(NCC(O)c1cccc(Cl)c1)CC2 (stereo not given) : FALSE
O=c1[nH]c2ccc(S(=O)CCN3CCC(Cc4ccc(F)cc4)CC3)cc2o1 (stereo not given) : TRUE
CC[C@H](C)C(=O)O[C@H]1C[C@@H](C)C=C2C=C[C@H](C)[C@H](CC[C@@H]3C[C@@H](O)CC(=O)O3)[C@H]21 : FALSE
CCC(C)(C)C(=O)O[C@H]1C[C@@H](C)C=C2C=C[C@H](C)[C@H](CC[C@@H]3C[C@@H](O)CC(=O)O3)[C@H]21 : FALSE
NC(=O)NO : FALSE

Entry `C1N2CN3CN1CN(C2)C3` : call = ?
FALSE

Entry `C1=CCCC=CCCC=CCC1` : call = ?
FALSE

* * *

- Read-out: Vascular endothelial growth factor receptor 2 (Homo sapiens)
- method notes: BSK_4H_VEGFRII: BioMAP Diversity Plus: 4H Assay for Vascular endothelial growth factor receptor 2 (VEGFR2) Biomarker Activity (AID 2283031)
- test parameters: primary human endothelial cells (HUVEC); actives raise or lower the signal
- Method: BSK_4H is a cell-based, multiplexed-readout assay that uses umbilical vein endothelium, a human vascular primary cell, with measurements taken at 24 hours after chemical dosing in a 96-well plate.BSK_4H_VEGFRII is an assay component measured in the BSK_4H assay. It measures VEGFRII antibody related to regulation of gene expression using ELISA technology.Data from the assay component BSK_4H_VEGFRII was analyzed into 1 assay endpoint. […]
Activity calls are given as the source filed them. The calls were made as follows: active = hit-call score of the fitted dose curve at least 0.9, where 1 is the maximum; inactive = score below 0.9.
Output constraint: value belongs to active, inactive

Some solved entries appear below for comparison.
Nc1cccc(N)c1 : inactive
CNCc1ccc(NC(=O)c2c[nH]c3c2C(=O)CCC3)cc1 : inactive

Next:
Entry CCOC(=O)COc1ccc2c(c1)CC(NCC(O)c1cccc(Cl)c1)CC2 (stereo unspecified) : call = ?
active

* * *

- Read-out: Caspase-3 (Homo sapiens) (UniProt P42574)
- Sequence (P42574 whole entry, looked up): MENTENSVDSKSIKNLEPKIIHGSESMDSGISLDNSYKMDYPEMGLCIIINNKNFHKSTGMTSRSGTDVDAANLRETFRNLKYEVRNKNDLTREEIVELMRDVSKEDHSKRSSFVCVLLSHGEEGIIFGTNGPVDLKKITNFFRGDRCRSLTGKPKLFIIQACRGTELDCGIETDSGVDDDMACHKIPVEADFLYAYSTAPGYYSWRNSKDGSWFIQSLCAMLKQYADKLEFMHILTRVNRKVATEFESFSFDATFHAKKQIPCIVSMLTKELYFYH
- method notes: LTEA_HepaRG_CASP3: Life Technologies and Expression Analysis (LTEA) Assay for cysteine-aspartic acid protease (CASP3) using HepaRG (AID 2283477)
- test parameters: mRNA level, 48 h; actives raise or lower the signal
Active and inactive are the calls of the source. The calls were made as follows: active = hit-call score of the fitted dose curve at least 0.9, where 1 is the maximum; inactive = score below 0.9.
Output constraint: value belongs to t for active, f for inactive

Some solved entries appear below for comparison.
Nc1ccc(Nc2ccccc2)cc1 : f
O=C1CCC(N2C(=O)c3ccccc3C2=O)C(=O)N1 (stereo not drawn) : f
O=C(CCCCCCCCc1cccnc1)N1CCC(C=C(c2ccccc2)c2ccccc2)CC1 : t
Cn1c(=O)c2c(ncn2C)n(C)c1=O : f
Cn1c(=O)cc(Oc2ccc(F)cc2F)c2cnc(NCC(C)(C)O)nc21 : f

Entry `O=C1CCCCCN1` : call = ?
f

Entry CC(C)CC(C)(O)C#CC(C)(O)CC(C)C (stereo not drawn) : call = ?
f

Entry `On1ccccc1=S` : call = ?
f

* * *

- method notes: ATG_SREBP_CIS: Attagene CIS-FACTORIAL HepG2 Assay for human Sterol Regulatory Element Binding (SREBP) (AID 2282962)
- test parameters: HepG2 Attagene cis-factorial SREBP reporter, mRNA; actives raise or lower the signal
Active and inactive are the calls of the source. How the source made its calls: active means hit-call score of the fitted dose curve at least 0.9, where 1 is the maximum; inactive means score below 0.9.
Output constraint: value belongs to active, inactive

Some solved entries appear below for comparison.
CC(=O)OC[C@H]1O[C@@](COC(C)=O)(O[C@H]2O[C@H](COC(C)=O)[C@@H](OC(C)=O)[C@H](OC(C)=O)[C@H]2OC(C)=O)[C@@H](OC(C)=O)[C@@H]1OC(C)=O : inactive
C=CC(=C)CCC=C(C)C : inactive
Nc1cccc(N)c1 : inactive
Clc1nc(Cl)c(Cl)c(Cl)c1Cl : inactive
O=C1OC(=O)C2C3C=CC(C3)C12 (stereo unspecified) : inactive
CC(=O)c1ccc2c(c1)[C@H](NC(=O)c1ccc(F)cc1)[C@@H](O)C(C)(C)O2 : inactive

Entry `CCn1nc(Cc2ccccc2)cc1C1CCN(C[C@H]2C[C@H](N(C)[C@@H](C(=O)O)C(C)C)C[C@@H]2c2cccc(F)c2)CC1` : call = ?
active

Entry `COC(=O)c1c(Cl)c(Cl)c(C(=O)OC)c(Cl)c1Cl` : call = ?
inactive

Entry `O=C(O)c1cc(N=Nc2ccc(S(=O)(=O)Nc3ccccn3)cc2)ccc1O` : call = ?
inactive

Entry `CC(C)=CCC/C(C)=C/CO` : call = ?
inactive

Entry `CCCCCCCCCCCCCCCO` : call = ?
inactive

Entry `C=CCCCCCCCCC(=O)O` : call = ?
inactive

Entry `C1=CCCC=CCCC=CCC1` : call = ?
inactive

* * *

- method notes: ACEA_AR_antagonist_AUC_viability: ACEA Biosciences xCELLigence Real-Time Cell Analysis on Androgen Receptor Antagonism for Viability (AID 2283776);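 further: 22Rv1 human prostate cancer cells growing on impedance electrode plates; area under impedance growth curve at 80 h after dosing as viability; hits lower the growth signal relative to DMSO meaning cytotoxicity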
Results filed as inconclusive are left out. Active and inactive are the calls of the source. The calls were made as follows: active = hit-call score of the fitted dose curve at least 0.9, where 1 is the maximum; inconclusive = response in the unintended direction; inactive = score below 0.9.
Output constraint: value belongs to active, inactive

Entry `Cn1c(=O)cc(Oc2ccc(F)cc2F)c2cnc(NCC(C)(C)O)nc21` : call = ?
inactive

Entry `CCCC(=O)OCC` : call = ?
inactive

Entry `CCOCCO` : call = ?
inactive

Entry `CC(C)CCCCCCOC(=O)c1ccc(C(=O)OCCCCCCC(C)C)c(C(=O)OCCCCCCC(C)C)c1` : call = ?
inactive

Entry `CCN(C(=O)c1cc(C)cc(OC[C@H](C)Nc2ccncc2)c1)C(C)C` : call = ?
active

Entry `NC(=O)NO` : call = ?
inactive

* * *

- system under test: Nuclear receptor subfamily 1 group I member 2 (Homo sapiens)
- method notes: ATG_PXR_TRANS: Attagene TRANS-FACTORIAL HepG2 Assay for human Pregnane X Receptor (PXR) (AID 2283008)
- Description: ATG_TRANS is a cell-based, multiplexed-readout assay that uses HepG2, a human liver cell line, with measurements taken at 24 hours after chemical dosing in a 24-well plate.ATG_PXR_TRANS is one of 30 assay component(s) measured or calculated from the ATG_TRANS assay. […] This assay endpoint, ATG_PXR_TRANS, was analyzed in the positive analysis fitting direction relative to DMSO as the negative control and baseline of activity. […]
Results filed as inconclusive are left out. Calls of active or inactive are those of the source. The calls were made as follows: active = hit-call score of the fitted dose curve at least 0.9, where 1 is the maximum; inconclusive = response in the unintended direction; inactive = score below 0.9.
Output constraint: value belongs to yes (active), no (inactive)

Some solved entries appear below for comparison.
CC(O)CN(CCN(CC(C)O)CC(C)O)CC(C)O (centres undefined) : no
C=CC(=C)CCC=C(C)C : no
CC(=O)c1ccc2c(c1)[C@H](NC(=O)c1ccc(F)cc1)[C@@H](O)C(C)(C)O2 : yes

Entry `CCn1nc(Cc2ccccc2)cc1C1CCN(C[C@H]2C[C@H](N(C)[C@@H](C(=O)O)C(C)C)C[C@@H]2c2cccc(F)c2)CC1` : call = ?
no

Entry `CN(C)c1ccc(Cc2ccc(N(C)C)cc2)cc1` : call = ?
no

Entry `COCCOc1cc2cc(C(=O)NC3CCN(C(C)C)CC3)n(CC(=O)Nc3ccc(Cl)cn3)c2cn1` : call = ?
no

* * *

- Read-out: Pro-epidermal growth factor (Homo sapiens)
- method notes: LTEA_HepaRG_EGF: Life Technologies and Expression Analysis (LTEA) Assay for Epidermal growth factor (EGF) using HepaRG (AID 2283489)
- test parameters: mRNA level, 48 h; actives raise or lower the signal
Calls of active or inactive are those of the source. The calls were made as follows: active = hit-call score of the fitted dose curve at least 0.9, where 1 is the maximum; inactive = score below 0.9.
Output constraint: value belongs to true for active, false for inactive

Some solved entries appear below for comparison.
O=c1n(CC2CO2)c(=O)n(CC2CO2)c(=O)n1CC1CO1 (stereo not given) : false
Cn1cnc([N+](=O)[O-])c1Sc1ncnc2nc[nH]c12 : false
Cc1ccc(N)cc1O : false
CC(=O)OC[C@H]1O[C@@](COC(C)=O)(O[C@H]2O[C@H](COC(C)=O)[C@@H](OC(C)=O)[C@H](OC(C)=O)[C@H]2OC(C)=O)[C@@H](OC(C)=O)[C@@H]1OC(C)=O : false
CC(C)=CCC/C(C)=C/CO : false
CCn1nc(Cc2ccccc2)cc1C1CCN(C[C@H]2C[C@H](N(C)[C@@H](C(=O)O)C(C)C)C[C@@H]2c2cccc(F)c2)CC1 : false
CC[C@H](C)C(=O)O[C@H]1C[C@@H](C)C=C2C=C[C@H](C)[C@H](CC[C@@H]3C[C@@H](O)CC(=O)O3)[C@H]21 : false
O=C(O)c1cccc(Oc2ccccc2)c1 : false

Entry `O=C(CCCCCCCCc1cccnc1)N1CCC(C=C(c2ccccc2)c2ccccc2)CC1` : call = ?
false

Entry `Cc1ccc(C)c(O)c1` : call = ?
false

Entry `Nc1cccc(N)c1` : call = ?
false
